Assayed System: OGA (Homo sapiens, UniProt O60502)
Construct: HEK293 cells inducible for P301L mutant human Tau (isoform 2N4R) were established at Janssen; endogenous in cells; host or cells: HEK293 cells inducible for P301L mutant human Tau (2N4R)
Protocol Summary: OGA cellular assay (ICC detection of O-GlcNAcylated proteins in HEK293 cells inducible for P301L mutant human Tau)
Format: cell-based
Recorded Conditions: HEK293 cells inducible for P301L mutant human Tau, 6 hours incubation; read-out: Cellular hOGA; pEC50 (converted)
Assign EC50 to each entry below.

Here are 3 compounds. What values of EC50 were reported for them?
1. CC(c1ccc2c(n1)OCCO2)N1CCC(Oc2ccc(OC(F)(F)F)cn2)CC1 (stereo not drawn)
2. CC(c1ccc2c(n1)OCCO2)N1CCC(Oc2ccncc2C#N)CC1 (stereo not drawn)
3. C[C@H](c1nc2c(cc1F)OCCO2)N1CCC(Oc2ccc(C#N)nn2)CC1 (single isomer, unassigned)

["> 1 µM", "> 1 µM", "> 1 µM"]

* * *

Assayed System: recombinant human Meningioma Expressed Antigen 5 (MGEA5), also referred to as O-GlcNAcase (OGA) (Homo sapiens)
Construct: Full length OGA enzyme was purchased at OriGene (cat #TP322411); purchased OriGene TP322411
Sequence (O60502 1-916): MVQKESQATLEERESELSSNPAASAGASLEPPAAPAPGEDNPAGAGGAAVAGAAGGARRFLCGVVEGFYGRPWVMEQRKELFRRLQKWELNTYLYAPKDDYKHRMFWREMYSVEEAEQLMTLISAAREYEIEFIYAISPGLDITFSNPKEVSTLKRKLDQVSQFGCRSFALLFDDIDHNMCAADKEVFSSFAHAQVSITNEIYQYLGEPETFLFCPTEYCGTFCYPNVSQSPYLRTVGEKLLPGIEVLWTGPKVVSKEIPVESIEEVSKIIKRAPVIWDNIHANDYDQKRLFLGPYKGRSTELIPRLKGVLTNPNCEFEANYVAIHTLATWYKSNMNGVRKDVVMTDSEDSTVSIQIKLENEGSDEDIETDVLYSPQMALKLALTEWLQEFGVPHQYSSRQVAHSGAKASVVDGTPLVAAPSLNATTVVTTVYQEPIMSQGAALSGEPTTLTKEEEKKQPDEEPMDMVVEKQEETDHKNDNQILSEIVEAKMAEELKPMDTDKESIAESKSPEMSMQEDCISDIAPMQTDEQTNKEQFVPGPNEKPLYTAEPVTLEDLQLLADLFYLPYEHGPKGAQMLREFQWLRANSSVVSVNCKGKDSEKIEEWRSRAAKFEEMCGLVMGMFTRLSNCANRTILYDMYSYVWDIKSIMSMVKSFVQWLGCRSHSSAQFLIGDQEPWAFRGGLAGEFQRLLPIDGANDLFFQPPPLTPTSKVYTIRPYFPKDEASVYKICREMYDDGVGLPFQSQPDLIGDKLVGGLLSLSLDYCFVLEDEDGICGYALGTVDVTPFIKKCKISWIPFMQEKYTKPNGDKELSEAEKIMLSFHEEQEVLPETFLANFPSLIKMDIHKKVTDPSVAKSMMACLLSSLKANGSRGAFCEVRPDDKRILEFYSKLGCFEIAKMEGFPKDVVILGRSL
Protocol Summary: OGA biochemical assay (inhibition of FM-GlcNAc hydrolysis, fluorescence)
Recorded Conditions: read-out: Enzymatic hOGA, pIC50 (converted)
API: label(entry) gives fulfilled if the entry's IC50 is strictly smaller than 50 nM; on equality or larger values it gives not fulfilled.

Completed entries (count: 3):
Molecule	Class
Cc1cc(OC2CCN(C(C)c3nc4c(cc3F)OCCO4)CC2)nc(C)n1 (stereo not drawn)	fulfilled
Cc1ncc(OC2CCN(C(C)c3ccc4c(n3)OCCO4)CC2)cn1.Cl (stereo not drawn)	not fulfilled
COc1cc(OC2CCN(C(C)c3nc4c(cc3F)OCCO4)CC2)ncc1C#N (stereo not drawn)	fulfilled

State whether 50 nM exceeds IC50 recorded for Cc1cc(OC2CCN([C@@H](C)c3nc4c(cc3F)CCO4)CC2)cc(C)n1 (single isomer, unassigned) . not fulfilled

Hi there! Is IC50 for Cc1ncc(OC2CCN(C(C)c3nc4c(cc3F)OCCO4)CC2)cn1.Cl (stereo not drawn) below 50 nM, do you know? fulfilled

Confirm or reject: IC50 of Cc1cccc(OC2CCN(C(C)c3ccc4c(n3)OCCO4)CC2)n1 (stereo not drawn) lies strictly below 50 nM not fulfilled

Hi there! Is IC50 for Cc1cc(OC2CCN([C@H](C)c3ccc4c(n3)OCCO4)CC2)cc(C(F)(F)F)n1 (single isomer, unassigned) below 50 nM, do you know? not fulfilled

Dear colleague, could you confirm whether IC50 of Cc1cc(OC2CCN(C(C)c3cnc4c(c3)OCCO4)CC2)nc(C)n1 (stereo not drawn) falls below 50 nM? Thanks. not fulfilled

* * *

Consider the following compounds; for each one, report its Emax.
Assayed System: OGA (Homo sapiens, UniProt O60502)
Construct: HEK293 cells inducible for P301L mutant human Tau (isoform 2N4R) were established at Janssen; endogenous in cells; host or cells: HEK293 cells inducible for P301L mutant human Tau (2N4R)
Sequence (O60502 1-916): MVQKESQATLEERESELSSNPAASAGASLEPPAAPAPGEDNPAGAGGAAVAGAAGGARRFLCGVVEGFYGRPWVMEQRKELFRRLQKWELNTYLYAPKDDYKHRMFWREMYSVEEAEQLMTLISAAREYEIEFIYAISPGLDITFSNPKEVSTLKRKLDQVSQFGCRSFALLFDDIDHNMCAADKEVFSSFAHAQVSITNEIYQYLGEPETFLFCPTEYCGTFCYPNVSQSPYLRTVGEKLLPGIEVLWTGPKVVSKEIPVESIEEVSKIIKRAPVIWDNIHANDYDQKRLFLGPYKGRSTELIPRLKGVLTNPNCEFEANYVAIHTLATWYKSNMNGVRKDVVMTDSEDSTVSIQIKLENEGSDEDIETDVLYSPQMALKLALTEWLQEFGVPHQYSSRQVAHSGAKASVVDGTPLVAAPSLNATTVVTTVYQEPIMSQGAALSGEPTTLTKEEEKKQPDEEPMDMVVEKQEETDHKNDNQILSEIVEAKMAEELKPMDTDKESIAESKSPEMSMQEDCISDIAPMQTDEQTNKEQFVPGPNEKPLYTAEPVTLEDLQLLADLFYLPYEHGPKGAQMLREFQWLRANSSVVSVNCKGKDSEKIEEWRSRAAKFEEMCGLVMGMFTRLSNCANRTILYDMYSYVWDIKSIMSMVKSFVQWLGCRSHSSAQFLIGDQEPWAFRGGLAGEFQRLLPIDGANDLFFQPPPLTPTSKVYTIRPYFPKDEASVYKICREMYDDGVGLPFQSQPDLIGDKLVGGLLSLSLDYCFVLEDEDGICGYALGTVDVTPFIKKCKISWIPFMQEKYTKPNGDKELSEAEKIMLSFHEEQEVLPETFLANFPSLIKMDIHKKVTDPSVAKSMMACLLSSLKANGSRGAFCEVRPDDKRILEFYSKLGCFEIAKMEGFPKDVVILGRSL
Protocol Summary: OGA cellular assay (ICC detection of O-GlcNAcylated proteins in HEK293 cells inducible for P301L mutant human Tau)
Type: cell-based
Recorded Conditions: HEK293, HEK293 cells inducible for P301L mutant human Tau, 6 hours incubation; maximum = Thiamet G 200 uM

I would be grateful if you could provide Emax for each of the following entries.
1. Cc1ncc(COC2CCN(C(C)c3nc4c(cc3F)OCCO4)CC2)cn1 (stereo not shown) [Compound 135]
2. Cc1ccc(NC2CCN(C(C)c3nc4c(cc3F)OCCO4)CC2)cn1 (stereo not shown) [Compound 126]

97%
73%

Quick one: give me Emax for each item below, same order please.
1. Cc1cc(OC2CCN(C(C)c3nc4c(cc3F)OCCO4)CC2)nc(C)n1 (stereo not shown) [Compound 12]
2. COc1cnccc1OC1CCN(C(C)c2ccc3c(n2)OCCO3)CC1 (stereo not shown) [Compound 98]
3. CC(c1nc2c(cc1F)OCCO2)N1CCC(Oc2ccc(C3CC3)nc2)CC1 (stereo not shown) [Compound 164]
4. Cc1cc(OC2CCN(C(C)c3ccc4c(n3)OCC4)CC2)cc(C)n1 (stereo not shown) [Compound 60]
5. Cc1cc(O[C@H]2CCN(C(C)c3ccc4c(n3)OCCO4)C[C@H]2C)cc(C)n1 (stereo partly shown) [Compound 28]

74%
47%
72%
84%
68%

* * *

Assayed System: OGA (Homo sapiens, UniProt O60502)
Construct: HEK293 cells inducible for P301L mutant human Tau (isoform 2N4R) were established at Janssen; endogenous in cells; host or cells: HEK293 cells inducible for P301L mutant human Tau (2N4R)
Protocol Summary: OGA cellular assay (ICC detection of O-GlcNAcylated proteins in HEK293 cells inducible for P301L mutant human Tau)
Assay type: cell-based
Recorded Conditions: HEK293 cells inducible for P301L mutant human Tau, 6 hours incubation; read-out: Cellular hOGA; pEC50 (converted)
Endpoint: log10 of EC50 (log10 of the value in µM)
Scale: log10; quantity: EC50; unit before log: µM

In the examples that follow, each entry is paired with its recorded log10 of EC50.
Compound	Assayed System	Endpoint	Result Value
Cc1cc(OC2CCN(C(C)c3ccc4c(n3)OCCO4)CC2)cc(C(F)(F)F)n1 (stereo not drawn)	OGA (Homo sapiens, UniProt O60502)	log10 of EC50	-0.50
Cc1cc(OC2CCN(C(C)c3nc4c(cc3F)OCCO4)CC2)cc(C(F)F)n1 (stereo not drawn)	OGA (Homo sapiens, UniProt O60502)	log10 of EC50	-1.10
CC(c1nc2c(cc1F)OCCO2)N1CCC(Oc2ccc(C(F)(F)F)nn2)CC1 (stereo not drawn)	OGA (Homo sapiens, UniProt O60502)	log10 of EC50	-0.50
Cc1cc(OC2CCN(C(C)c3ccc4c(n3)OCCO4)CC2)cc(OC(C)C)n1 (stereo not drawn)	OGA (Homo sapiens, UniProt O60502)	log10 of EC50	-1.00
COc1cnccc1OC1CCN(C(C)c2ccc3c(n2)OCCO3)CC1 (stereo not drawn)	OGA (Homo sapiens, UniProt O60502)	log10 of EC50	-0.30
Cc1nccnc1OC1CCN(C(C)c2nc3c(cc2F)OCCO3)CC1 (stereo not drawn)	OGA (Homo sapiens, UniProt O60502)	log10 of EC50	-0.70
Cc1cc(COC2CCN(C(C)c3nc4c(cc3F)OCCO4)CC2)cc(C)n1 (stereo not drawn)	OGA (Homo sapiens, UniProt O60502)	log10 of EC50	-1.20
Cc1cc(OC2CCN(C(C)c3nc4c(cc3F)OCCO4)CC2)nc(C)n1 (stereo not drawn)	OGA (Homo sapiens, UniProt O60502)	log10 of EC50	-1.10
Cc1cc(C)c(OC2CCN(C(C)c3nc4c(cc3F)OCCO4)CC2)nn1 (stereo not drawn)	OGA (Homo sapiens, UniProt O60502)	log10 of EC50	-0.30
Cc1cc(COC2CCN(C(C)c3ccc4c(n3)OCC4)CC2)cc(C)n1 (stereo not drawn)	OGA (Homo sapiens, UniProt O60502)	log10 of EC50	-0.80

// batch mode: one log10 of EC50 value per listed entry
1. Cc1cc(OC2CCN(C(C)c3ccc4c(n3)OCCO4)CC2)cc(C(F)F)n1 (stereo not drawn)
2. Cc1cc(OC2CCN(C(C)c3ccc4c(n3)OCC4)CC2)cc(C)n1 (stereo not drawn)
3. Cc1cc(OC2CCN(C(C)c3cc4nc(C)sc4cc3F)CC2)nc(C)n1 (stereo not drawn)
4. CC(c1ccc2c(n1)OCCO2)N1CCC(Oc2cnc(Cl)c(F)c2)CC1 (stereo not drawn)
5. Cc1cnc(OC2CCN(C(C)c3ccc4c(n3)OCCO4)CC2)cn1 (stereo not drawn)
6. Cc1cc(OC2CCN(C(C)c3nc4c(cc3F)OCCO4)CC2)cnc1C (stereo not drawn)

1: -0.50; 2: -0.93; 3: -0.60; 4: -0.30; 5: -0.10; 6: -1.20
